Data provenance: patent US7671238B2

Form field: inhibition at 1 µM (one value per entry).
# Tested system: hNET (Homo sapiens, UniProt P23975)
# Construct: expressed in transfected cells; host or cells: MDCK-Net6 (MDCK cells stably transfected with hNET)
# Sequence (P23975 whole entry): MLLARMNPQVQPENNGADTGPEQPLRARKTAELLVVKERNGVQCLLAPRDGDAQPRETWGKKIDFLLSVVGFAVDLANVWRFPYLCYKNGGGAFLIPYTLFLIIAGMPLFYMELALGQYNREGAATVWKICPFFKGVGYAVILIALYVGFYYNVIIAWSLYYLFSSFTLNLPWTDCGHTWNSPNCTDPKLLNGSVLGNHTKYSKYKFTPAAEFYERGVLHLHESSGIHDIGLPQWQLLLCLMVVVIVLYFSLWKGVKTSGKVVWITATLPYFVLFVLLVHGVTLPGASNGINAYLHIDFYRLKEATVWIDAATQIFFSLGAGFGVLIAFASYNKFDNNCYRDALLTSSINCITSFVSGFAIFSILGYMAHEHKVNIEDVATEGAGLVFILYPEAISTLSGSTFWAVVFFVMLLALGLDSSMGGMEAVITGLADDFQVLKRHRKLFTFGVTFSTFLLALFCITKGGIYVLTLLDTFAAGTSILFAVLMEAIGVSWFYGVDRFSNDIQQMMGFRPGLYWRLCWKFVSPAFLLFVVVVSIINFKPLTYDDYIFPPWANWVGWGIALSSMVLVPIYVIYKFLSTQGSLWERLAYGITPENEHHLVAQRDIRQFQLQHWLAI
# Assay summary: Norepinephrine (NE) uptake assay in MDCK-Net6 cells
# Assay type: cell-based
# Settings: 1 μM test compound; MDCK-Net6 cells stably transfected with human hNET; [3H]NE uptake
Structures can show the parent of a compound that is named as a salt.

[
  {
    "Compound": "CNC[C@@H](O)[C@H](c1ccc(OC)cc1)N(C)c1ccc(OC)cc1 (racemic) [Example 26, hydrochloride]",
    "Tested system": "hNET (Homo sapiens, UniProt P23975)",
    "inhibition at 1 µM (%)": 75
  },
  {
    "Compound": "CNC[C@@H](O)[C@H](c1ccc(OC)cc1)N(C)c1ccc(Cl)cc1 (racemic) [Example 25, hydrochloride]",
    "Tested system": "hNET (Homo sapiens, UniProt P23975)",
    "inhibition at 1 µM (%)": 97
  },
  {
    "Compound": "CCNC[C@@H](O)[C@H](c1ccc(Cl)cc1)N(C)c1ccccc1 (racemic) [Example 31, hydrochloride]",
    "Tested system": "hNET (Homo sapiens, UniProt P23975)",
    "inhibition at 1 µM (%)": 88
  },
  {
    "Compound": "CN(c1ccccc1Cl)[C@@H](c1ccccc1)[C@H](O)CN (racemic) [Example 3, hydrochloride]",
    "Tested system": "hNET (Homo sapiens, UniProt P23975)",
    "inhibition at 1 µM (%)": 45
  },
  {
    "Compound": "CCNC[C@@H](O)[C@H](c1ccc(OC)cc1)N(C)c1ccc(Cl)cc1 (racemic) [Example 29, hydrochloride]",
    "Tested system": "hNET (Homo sapiens, UniProt P23975)",
    "inhibition at 1 µM (%)": 95
  },
  {
    "Compound": "Cc1ccc(N(C)[C@@H](c2ccccc2)[C@H](O)CN(C)C)cc1 (racemic) [Example 32, hydrochloride]",
    "Tested system": "hNET (Homo sapiens, UniProt P23975)",
    "inhibition at 1 µM (%)": 95
  },
  {
    "Compound": "CNC[C@@H](O)[C@H](c1ccc(OC)cc1)N(C)c1cccc(F)c1 (racemic) [Example 24, hydrochloride]",
    "Tested system": "hNET (Homo sapiens, UniProt P23975)",
    "inhibition at 1 µM (%)": 92
  },
  {
    "Compound": "COc1cccc(N(C)[C@@H](c2ccccc2)[C@H](O)CN)c1 (racemic) [Example 4, hydrochloride]",
    "Tested system": "hNET (Homo sapiens, UniProt P23975)",
    "inhibition at 1 µM (%)": 86
  },
  {
    "Compound": "COc1ccc([C@@H]([C@H](O)CN)N(C)c2ccc(Cl)cc2)cc1 (racemic) [Example 6, hydrochloride]",
    "Tested system": "hNET (Homo sapiens, UniProt P23975)",
    "inhibition at 1 µM (%)": 92
  },
  {
    "Compound": "CCNC[C@@H](O)[C@H](c1ccccc1)N(C)c1ccc(C)cc1 (racemic) [Example 28, hydrochloride]",
    "Tested system": "hNET (Homo sapiens, UniProt P23975)",
    "inhibition at 1 µM (%)": 71
  },
  {
    "Compound": "Cc1cccc(N(C)[C@@H](c2ccccc2)[C@H](O)CN)c1 (racemic) [Example 2, hydrochloride]",
    "Tested system": "hNET (Homo sapiens, UniProt P23975)",
    "inhibition at 1 µM (%)": 92
  },
  {
    "Compound": "CNC[C@@H](O)[C@H](c1cccc(F)c1)N(C)c1ccc(Cl)cc1 (racemic) [Example 23, hydrochloride]",
    "Tested system": "hNET (Homo sapiens, UniProt P23975)",
    "inhibition at 1 µM (%)": 99
  },
  {
    "Compound": "CCNC[C@@H](O)[C@H](c1cccc(Cl)c1)N(C)c1ccccc1 (racemic) [Example 30, hydrochloride]",
    "Tested system": "hNET (Homo sapiens, UniProt P23975)",
    "inhibition at 1 µM (%)": 56
  }
]
